# credit: patent US6262084A

- study-system: α4β1 integrin (Homo sapiens, UniProt P05556+P13612)
- Construct: Ramos cells fluorescently labeled with calcein; endogenous in cells; host or cells: Ramos cells
- Sequence (P13612 34-1032): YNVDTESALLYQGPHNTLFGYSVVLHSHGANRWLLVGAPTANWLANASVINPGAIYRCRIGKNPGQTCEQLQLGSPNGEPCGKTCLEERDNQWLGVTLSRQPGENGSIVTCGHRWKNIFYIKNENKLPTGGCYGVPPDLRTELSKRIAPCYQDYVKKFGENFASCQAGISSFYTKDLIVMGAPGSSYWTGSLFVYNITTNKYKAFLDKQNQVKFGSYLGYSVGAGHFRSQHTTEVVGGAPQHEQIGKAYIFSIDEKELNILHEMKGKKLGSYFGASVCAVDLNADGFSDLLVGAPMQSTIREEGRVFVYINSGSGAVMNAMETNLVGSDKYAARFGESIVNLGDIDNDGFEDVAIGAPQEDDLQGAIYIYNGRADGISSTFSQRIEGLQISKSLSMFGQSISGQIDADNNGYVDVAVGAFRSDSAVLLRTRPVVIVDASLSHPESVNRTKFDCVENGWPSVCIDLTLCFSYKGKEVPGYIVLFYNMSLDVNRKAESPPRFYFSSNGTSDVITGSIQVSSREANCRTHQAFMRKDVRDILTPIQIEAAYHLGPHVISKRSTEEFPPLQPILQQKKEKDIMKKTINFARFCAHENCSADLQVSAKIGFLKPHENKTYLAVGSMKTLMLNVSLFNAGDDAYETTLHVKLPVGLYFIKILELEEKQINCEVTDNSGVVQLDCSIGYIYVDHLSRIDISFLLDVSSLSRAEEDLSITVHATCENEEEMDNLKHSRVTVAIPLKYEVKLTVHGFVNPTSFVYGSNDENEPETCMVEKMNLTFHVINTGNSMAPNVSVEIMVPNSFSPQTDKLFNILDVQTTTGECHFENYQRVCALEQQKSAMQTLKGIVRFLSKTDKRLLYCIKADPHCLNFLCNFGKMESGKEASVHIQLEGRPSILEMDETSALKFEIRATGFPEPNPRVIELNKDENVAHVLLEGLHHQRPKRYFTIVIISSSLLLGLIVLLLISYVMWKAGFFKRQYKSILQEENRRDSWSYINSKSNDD
- Sequence (P05556 21-798): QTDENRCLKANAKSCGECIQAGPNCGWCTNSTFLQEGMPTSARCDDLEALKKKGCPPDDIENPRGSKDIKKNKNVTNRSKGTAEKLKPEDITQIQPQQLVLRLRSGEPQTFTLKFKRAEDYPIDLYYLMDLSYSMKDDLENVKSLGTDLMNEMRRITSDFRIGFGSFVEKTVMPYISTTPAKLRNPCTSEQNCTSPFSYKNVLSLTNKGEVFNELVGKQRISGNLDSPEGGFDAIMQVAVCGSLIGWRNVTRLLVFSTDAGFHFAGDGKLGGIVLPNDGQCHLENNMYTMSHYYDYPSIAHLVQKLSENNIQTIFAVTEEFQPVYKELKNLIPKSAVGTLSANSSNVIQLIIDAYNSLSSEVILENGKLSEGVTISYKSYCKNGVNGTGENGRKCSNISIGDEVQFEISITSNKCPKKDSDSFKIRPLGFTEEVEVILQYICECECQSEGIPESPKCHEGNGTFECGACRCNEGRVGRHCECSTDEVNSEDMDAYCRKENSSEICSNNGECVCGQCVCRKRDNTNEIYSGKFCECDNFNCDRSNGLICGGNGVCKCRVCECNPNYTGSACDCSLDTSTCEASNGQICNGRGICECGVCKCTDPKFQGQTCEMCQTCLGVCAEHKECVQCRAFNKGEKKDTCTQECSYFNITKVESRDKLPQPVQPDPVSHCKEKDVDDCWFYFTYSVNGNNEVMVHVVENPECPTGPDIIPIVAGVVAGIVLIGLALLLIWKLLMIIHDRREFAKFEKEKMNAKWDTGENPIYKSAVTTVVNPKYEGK
- protocol-notes: Inhibition of adhesion of calcein-labeled Ramos cells to CS1 (fibronectin) peptide-conjugated ovalbumin
- Format: cell-based
- condition-info: Table 1; dose required to give 50% inhibition; Ramos cell adhesion to CS1-ovalbumin, 30 minutes at 37° C
- Excerpt: The ability of compounds of the present invention to inhibit binding is described in detail hereinafter in the Examples by a procedure in which a 26-amino acid peptide containing the CS1 sequence of fibroncctin with an N-terminal Cys was coupled to maleimide activated ovalbumin. […] Following three washes with binding buffer, adherent cells were lysed and quantitated using a fluorometer. […]
readout-type: pIC50
When answering, recall that pIC50 equals minus log10 of the concentration in mol/L, and write that number alone.

CCSC[C@@H](CSc1ccccc1)OC(=O)N[C@@H](CC(=O)O)c1ccc2c(c1)OCO2 6.00
CSC[C@@H](CSc1ccccc1)NC(=O)N[C@@H](CC(=O)O)c1ccc2c(c1)OCO2 7.00

Value lookup for pIC50; key = COC(=O)NCCCC[C@H](NC(=O)N[C@@H](CC(=O)O)c1ccc2c(c1)OCO2)C(=O)NCc1ccc(N(Cc2ccccc2C)Cc2ccccc2C)cc1
6.00

###

- study-system: α4β1 integrin (Homo sapiens, UniProt P05556+P13612)
- Construct: Ramos cells fluorescently labeled with calcein; endogenous in cells; host or cells: Ramos cells
- protocol-notes: Inhibition of adhesion of calcein-labeled Ramos cells to CS1 (fibronectin) peptide-conjugated ovalbumin
- Format: cell-based
- condition-info: Table 1; dose required to give 50% inhibition; Ramos cell adhesion to CS1-ovalbumin, 30 minutes at 37° C
readout-type: pIC50
// field semantics: pIC50 = negative decimal log of concentration (mol/L)

Examples from the recorded data:
compound	study-system	pIC50
COC(=O)NCCC[C@@H](CSc1ccccc1)NC(=O)N[C@@H](CC(=O)O)c1ccc2c(c1)OCO2	α4β1 integrin (Homo sapiens, UniProt P05556+P13612)	5.70
CC(C)C[C@@H](CSc1ccccc1)NC(=O)N[C@@H](CC(=O)O)c1ccc2c(c1)OCO2	α4β1 integrin (Homo sapiens, UniProt P05556+P13612)	5.70
O=C(O)C[C@H](NC(=O)N[C@@H](CSCCCc1ccccc1)CSc1ccccc1)c1ccc2c(c1)OCO2	α4β1 integrin (Homo sapiens, UniProt P05556+P13612)	5.70
O=C(O)CSC[C@@H](CSc1ccccc1)NC(=O)N[C@@H](CC(=O)O)c1ccc2c(c1)OCO2	α4β1 integrin (Homo sapiens, UniProt P05556+P13612)	5.70
O=C(O)C[C@H](NC(=O)N[C@H](COCc1ccccc1)CSCc1ccccc1)c1ccc2c(c1)OCO2	α4β1 integrin (Homo sapiens, UniProt P05556+P13612)	6.00

May I ask what pIC50 has been recorded for O=C(O)C[C@H](NC(=O)N[C@@H](CSCc1ccccc1)CSc1ccccc1)c1ccc2c(c1)OCO2 ?
7.70

For the compound shown here, O=C(O)C[C@H](NC(=O)N[C@@H](CCCCNC(=O)OCc1ccccc1)C(=O)NCc1cccs1)C(=O)O , give the reported pIC50.
4.35

###

# maps each entry to its inhibition at 100 µM
- study-system: α4β1 integrin (Homo sapiens, UniProt P05556+P13612)
- Construct: Ramos cells fluorescently labeled with calcein; endogenous in cells; host or cells: Ramos cells
- protocol-notes: Inhibition of adhesion of calcein-labeled Ramos cells to CS1 (fibronectin) peptide-conjugated ovalbumin
- Assay type: cell-based
- condition-info: Ramos, Table 1; compound at a concentration of 100 μM; read-out: % A (percent inhibition of cell adhesion)
Write the numeric value and append its unit.

molecule	study-system	observed-measurement
CSCC[C@@H](CSc1ccccc1)NC(=S)N[C@@H](CC(=O)O)c1ccc2c(c1)OCO2	α4β1 integrin (Homo sapiens, UniProt P05556+P13612)	100%
CC(C)[C@@H](CSc1ccccc1)NC(=O)N[C@H](CC(=O)O)c1ccc2c(c1)OCO2	α4β1 integrin (Homo sapiens, UniProt P05556+P13612)	83%
O=C(O)C[C@H](NC(=O)N[C@@H](CSCC1CC1)CSc1ccccc1)c1ccc2c(c1)OCO2	α4β1 integrin (Homo sapiens, UniProt P05556+P13612)	100%

Give its inhibition at 100 µM value. Item: O=C(O)C[C@H](NC(=O)N[C@@H](CSCc1ccccc1)CSc1ccccc1)c1ccc2c(c1)OCO2
100%

Which inhibition at 100 µM value is on record for CCCC[C@@H](CSc1ccccc1)NC(=O)N[C@@H](CC(=O)O)c1ccc2c(c1)OCO2 ?
100%

Query: inhibition at 100 µM; subject: CSCC[C@@H](CSc1ccc(NCc2ccccc2C)cc1)NC(=O)N[C@@H](CC(=O)O)c1ccc2c(c1)OCO2
93%

Value lookup for inhibition at 100 µM; key = CCCCC(CSc1ccccc1)OC(=O)N[C@@H](CC(=O)O)c1ccc2c(c1)OCO2 (some centres unmarked)
100%

Need inhibition at 100 µM of O=C(O)C[C@H](NC(=O)N[C@@H](CSCCCc1ccccc1)CSc1ccccc1)c1ccc2c(c1)OCO2 , thanks.
100%
